Tested on: SK-OV-3 ovarian
Assay: NCI tumour cell line growth inhibition, 48 h
measurement_kind: TGI (µM)
Please give a number only; it is taken to be in µM.

Query: Entry under review: `N#Cc1cnn(C(=O)c2nn(-c3ccc(Cl)cc3)cc2O)c1N` . Reported TGI?
Result: 11.3

Query: Repeat with `COc1cc2c3c(c4cc(OC)c(OC)cc4c2cc1OC)CN1CCC[C@H]1C3`
Result: 0.172

Query: Repeat with O=C(OC1C#CCSCC#C/C=C\1)c1ccc2c(c1)C(=O)c1ccccc1C2=O (centres undefined)
Result: 70.6

Query: Repeat with `COc1ccc(/C(=C(\c2ccccc2)[N+](=O)[O-])c2ccc(OCCN3CCCC3)cc2)cc1`
Result: 18.3

---

For each entry below, report its TGI value.
System: BT-549 breast
Test: NCI tumour cell line growth inhibition, 48 h

Query: Entry under review: COc1cc2c(c(O)c1OC)C(O)C1CCC(=O)N1C2c1ccc2c(c1)OCO2 (stereo not given) . Reported TGI?
Result: > 100 µM

Query: Repeat with `CSC(SC)=C(C#N)C(=O)Nc1ccc(Cl)cc1`
Result: > 100 µM

Query: Repeat with `COC(=O)c1sc(-n2cnc3cc(OC)c(OC)cc32)cc1OCc1ccccc1C(F)(F)F`
Result: > 25 µM

Query: Repeat with `COc1ccc2c(Cl)cc(NC(=S)Nc3ccccc3)nc2c1`
Result: > 100 µM

Query: Repeat with `CCCNC(=O)c1cc(OC)c(OC)cc1NC(=O)C12CC3CC(CC(C3)C1)C2`
Result: 31.9 µM

---

Test system: SK-MEL-2 melanoma
Experiment: NCI tumour cell line growth inhibition, 48 h
measurement_kind: TGI (µM)
Please give a number only; it is taken to be in µM.

Query: What value of TGI on SK-MEL-2 melanoma does `CO[C@H]1C[C@H](O[C@H]2CC[C@@]3(C)[C@H](CC[C@@H]4[C@@H]3CC[C@]3(C)[C@@H](C5=CC(=O)OC5)CC[C@]43O)C2)O[C@H](C)[C@H]1O` have?
Result: 0.0478

Query: Repeat with `CCOC(=O)Nc1cc2c(c(N)n1)N=C(c1ccc(Cl)cc1Cl)CN2`
Result: 19.7

Query: Repeat with `Cc1cccc(NC(=S)NNC(=O)c2cc(-c3ccccc3)nc3ccccc23)c1`
Result: 45.8

---

Tested on: OVCAR-3 ovarian
Assay: NCI tumour cell line growth inhibition, 48 h
measurement_kind: TGI

Query: Entry under review: `COc1cc2c(cc1C)NC(=O)/C2=C/c1c(Cl)[nH]c2ccccc12` . Reported TGI?
Result: 6.34 µM

Query: Repeat with CC[C@H](C)[C@H](NC(=O)CN(C)C)C(=O)N(C)[C@H](C[C@@H](OC(C)=O)c1nc(C(=O)NC23C4C5C2C2C3C4C52C(=O)OC)cs1)C(C)C (some centres undefined)
Result: 1.31 µM

Query: Repeat with `COc1ccc2cc(CNCCCCCCNC(=O)Nc3cccc4ccccc34)ccc2c1`
Result: > 100 µM

Query: Repeat with `O=[N+]([O-])c1ccc(N=P(c2ccccc2)(c2ccccc2)c2ccccc2)n2nnnc12`
Result: > 100 µM

Query: Repeat with `CC1=C(C(=S)Nc2ccc(Cl)c(C(=O)OC(C)C)c2)SCCO1`
Result: 52.7 µM

Query: Repeat with `CC/C(=C/c1ccc(OC)cc1)[N+](=O)[O-]`
Result: 3.35 µM

Query: Repeat with `Nc1nc(SCC#CCCl)c2[nH]cnc2n1`
Result: 10.9 µM

Query: Repeat with `Cc1c2ccncc2c(C)c2c1[nH]c1ccc(O)cc12`
Result: 0.435 µg/mL

Query: Repeat with `COC(=O)[C@]12CC[C@@H](C)[C@H](C)[C@@H]1C1=CC[C@@H]3[C@@]4(C)C[C@@H](OC(C)=O)[C@H](OC(C)=O)[C@@](C)(COC(C)=O)[C@@H]4[C@H](O)C[C@@]3(C)[C@]1(C)CC2`
Result: > 100 µM

Query: Repeat with O=C1N(c2ccc(Cl)cc2)C(=O)C2(SC=NN2Cc2ccccc2)N1c1ccc(Cl)cc1 (centres undefined)
Result: > 100 µM

Query: Repeat with C=C1C(=O)C23C(O)CC4C(C)(C)CCC(O)C4(C)C2CC(OC(C)=O)C1[C@H]3O (some centres undefined)
Result: 19 µM

Query: Repeat with COC1=CC(=O)[C@@]2(C)C(C)[C@H](c3ccccc3)[C@H]2C1=O (some centres undefined)
Result: > 100 µM

Query: Repeat with `CC(C)=CC(=O)c1[nH]c2ccccc2c1CC(=O)NCCc1cnc[nH]1`
Result: > 100 µM

Query: Repeat with `CO[C@H]1C[C@H](O[C@H]2CC[C@@]3(C)[C@H](CC[C@@H]4[C@@H]3CC[C@]3(C)[C@@H](C5=CC(=O)OC5)CC[C@]43O)C2)O[C@H](C)[C@H]1O`
Result: < 0.0194 µM

Query: Repeat with `CNC(=O)c1sc(-n2cnc3cc(OC)c(OC)cc32)cc1OCc1ccccc1C(F)(F)F`
Result: > 25 µM

Query: Repeat with `CC(=O)[CH-]C(=O)c1ccccc1.CC(=O)[CH-]C(=O)c1ccccc1.Cl.[O-]CCc1ccccn1.[O-]CCc1ccccn1.[Ti+4]`
Result: > 100 µM

Query: Repeat with `CCOc1c2c(cc3c1C(=O)c1c(OC)cccc1C3=O)C=C(OC)CC2`
Result: > 25 µM

Query: Repeat with `COc1ccc2c(Cl)cc(NC(=S)Nc3ccccc3)nc2c1`
Result: > 100 µM

Query: Repeat with `O=C(c1ccccc1)c1nn(-c2cccc(Cl)c2)c2nc3nc(-c4ccccc4)cc(=O)n3nc12`
Result: > 25 µM

Query: Repeat with CCOC(=O)C(Oc1ccc(OC)c2c1C(=O)CCC2)c1ccccc1 (centres undefined)
Result: > 100 µM

Query: Repeat with `CN1C/C(=C\c2ccccc2)C2=NN(C(N)=S)[C@H](c3ccccc3)[C@@H]2C1`
Result: > 100 µM

Query: Repeat with `O=C(C=P(c1ccccc1)(c1ccccc1)c1ccccc1)c1ccccc1-c1ccccc1C(=O)C=P(c1ccccc1)(c1ccccc1)c1ccccc1`
Result: < 0.012 µM

Query: Repeat with `ClC/C=C/CSc1ncnc2nc[nH]c12`
Result: > 100 µM

Query: Repeat with `COC(OC)c1cccc2c1C(=O)CCC1(CC2)OCCCCO1`
Result: > 100 µM

Query: Repeat with C=C(C)[C@@H]1CC[C@]2(C(=O)O)CC[C@]3(C)[C@H](CC[C@@H]4[C@@]5(C)CCC(N)C(C)(C)[C@@H]5CC[C@]43C)[C@@H]12 (some centres undefined)
Result: 3.66 µM

Query: Repeat with COc1cc2c(c3oc4c(O)cccc4c(=O)c13)CC(C(C)(O)CCl)O2 (centres undefined)
Result: 7.43 µM

Query: Repeat with N#CC1=C(N)OC2=C(CCCc3ccc([N+](=O)[O-])cc32)C1c1ccc(Cl)cc1 (centres undefined)
Result: 29.4 µM

Query: Repeat with `COc1cc2c3c(c4ccc(O)cc4c2cc1OC)[C@@H](O)[C@@H]1CCCN1C3`
Result: 0.00493 µM

Query: Repeat with C=CCCCCCCCCCOC1C=CC(O)C(CO)O1 (centres undefined)
Result: > 100 µM

Query: Repeat with `O=C1CCNC/C1=C\c1ccccc1`
Result: 54.8 µM

Query: Repeat with `CCN(CC)C(=O)N[C@@H](CC(C)C)C(=O)NC`
Result: > 100 µM

Query: Repeat with COc1cc([C@H]2OC[C@@H]3C(c4cc(OC)c5c(c4)OCO5)OC[C@H]23)cc(OC)c1OC (some centres undefined)
Result: > 100 µM

Query: Repeat with `CCN(CC)c1ccc(N=Nc2ccc(-c3nc4cccnc4s3)cc2)cc1`
Result: > 100 µM

Query: Repeat with NC1CC(=O)c2c(I)sc(I)c21 (centres undefined)
Result: 38.7 µM

Query: Repeat with C1CCC(CC2CCC(NC3=NCCO3)CC2)CC1 (centres undefined)
Result: 30.6 µM

Query: Repeat with `COc1ccc(/C=C\c2cc(OC)c(OC)c(OC)c2)cc1NC(=O)/C=C/c1cc(OC)c(OC)c(OC)c1`
Result: > 100 µM

Query: Repeat with O=C1OCOC2(CCCC2)C1c1ccccc1 (centres undefined)
Result: > 100 µM

Query: Repeat with `COc1cccc(NC(=O)/C(CS(=O)(=O)CCC(C(C)=O)C(C)=O)=N\NC(C)(C)C)c1`
Result: > 100 µM

Query: Repeat with `CC1=Nc2ccccc2S/C1=C1/C=NC(=NC#N)N=C1C(=O)Nc1cccc(Cl)c1`
Result: > 100 µM

---

Test system: SK-MEL-5 melanoma
Assay: NCI tumour cell line growth inhibition, 48 h; in the data active = GI50 below about 0.43 µM; inactive = the rest
Classes to choose from: active, inactive

Query: What call does the record list for `CN1CCN(Cc2ccc(NC(=O)c3cncc(C#Cc4c(N)ncc5ccccc45)c3)cc2C(F)(F)F)CC1` ?
Result: inactive

Query: Repeat with `CCCCCCCCCC(=O)Oc1ccc(/C(=C(/C)c2ccccc2)c2ccc(OCCN3CCCC3)cc2)cc1`
Result: inactive

Query: Repeat with `Oc1ccccc1/C=N\NC(=S)Nc1ccc(F)cc1`
Result: inactive

Query: Repeat with O=C1c2ccccc2-c2cn(Cc3ccccc3)c3cccc(c23)C1c1cccnc1 (centres undefined)
Result: inactive

Query: Repeat with CC[C@H](C)[C@H](NC(=O)CN(C)C)C(=O)N(C)[C@H](C[C@@H](OC(C)=O)c1nc(C(=O)NC23C4C5C2C2C3C4C52C(=O)OC)cs1)C(C)C (some centres undefined)
Result: active

Query: Repeat with `COc1cc(OC)c(/C=C/S(=O)(=O)Cc2ccc(OC)c(N)n2)c(OC)c1`
Result: active

Query: Repeat with `ClC/C=C/CSc1ncnc2nc[nH]c12`
Result: inactive

Query: Repeat with `COc1ccc(/C(=C(\c2ccccc2)[N+](=O)[O-])c2ccc(OCCN3CCCC3)cc2)cc1`
Result: inactive

Query: Repeat with `O=C(O)CN(CCN(CC(=O)O)CC(=O)O)CC(=O)O.[Cu+2].[Na+]`
Result: inactive

Query: Repeat with `COC(=O)c1sc(-n2cnc3cc(OC)c(OC)cc32)cc1OCc1ccccc1C(F)(F)F`
Result: inactive

Query: Repeat with O=C(CC1(O)C(=O)Nc2ccc(Cl)cc21)c1ccc(C(=O)NCC2CCC3(CC2)OOC2(CCCCC2)OO3)cc1 (centres undefined)
Result: inactive

Query: Repeat with `CNC(=O)c1sc(-n2cnc3cc(OC)c(OC)cc32)cc1OCc1ccccc1C(F)(F)F`
Result: inactive

Query: Repeat with `CC/C(=C/c1ccc(OC)cc1)[N+](=O)[O-]`
Result: inactive

Query: Repeat with `c1c2c(cc3c1OCO3)-c1ncc3cc4c(cc3c1C2)OCO4`
Result: active
